Recorded values, source patent US20230416363A1.

Collected Inhibition, % at 5.56 nM values appear next to each entry.
Molecular target: T1, hPD-1-Fc (human, UniProt Q15116 25-167)
T1 construct: domain: IgV domain; also called human PD-1-Fc; not shown: human IgG1 Fc
T1 sequence (Q15116 25-167 limits assumed): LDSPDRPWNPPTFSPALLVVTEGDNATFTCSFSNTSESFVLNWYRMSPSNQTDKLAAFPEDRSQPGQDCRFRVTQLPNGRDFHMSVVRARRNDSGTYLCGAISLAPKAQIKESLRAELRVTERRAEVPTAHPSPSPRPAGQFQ
Assay: blocking ELISA, PD-1 to PD-L1

Field: example entries. Status: answers known.
38B2 (antibody, V domains shown, 24H9 derivative, IgG; also called 780_54; hPD1 Ab (38B2)) VH: EVQLLESGGGLVQPGGSLRLSCAASGFTFSSYWMSWVRQAPGKGLEWVSAISGSGGSTYYADSVKGRFTISRDNSKNTLYLQMNSLRAEDTAVYYCASSPLQWVDVWGQGTTVTVSS VL: DIQMTQSPSSLSASVGDRVTITCRASESISSWLAWYQQKPGKAPKLLIYDASSLESGVPSRFSGSGSGTDFTLTISSLQPEDFATYYCQQGDSFPFTFGQGTKLEIK :: 92.7%
38A6 (antibody, V domains shown, also called 780_46) VH: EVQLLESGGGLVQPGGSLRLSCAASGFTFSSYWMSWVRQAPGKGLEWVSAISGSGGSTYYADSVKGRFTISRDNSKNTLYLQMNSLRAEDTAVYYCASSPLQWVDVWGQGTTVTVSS VL: DIQMTQSPSSLSASVGDRVTITCRASQDISRWLGWYQQKPGKAPKLLIYAASTLQSGVPSRFSGSGSGTDFTLTISSLQPEDFATYYCQQANSFPFTFGPGTKLEIK :: 92%
33C4 (antibody, V domains shown, also called 780_39) VH: QVQLVQSGAEVKKPGSSVKVSCKASGGTFSSSVISWVRQAPGQGLEWMGGIIPIFGTANYAQKFQGRVTITADESTSTAYMELSSLRSEDTAVYYCAREGLGCSGGSCYSGYYYGMDVWGQGTTVTVSS VL: DIVMTQSPLSLPVTPGEPASISCRSSQSLLHSNGYNYLDWYLQKPGQSPQLLIYEASSLHTGVPDRFSGSGSGTDFTLKISRVEAEDVGVYYCMQGSHWPYTFGQGTKLEIK :: 88.9%

Now turn to the next binder.
Field request: Inhibition, % at 5.56 nM | item: 31B1 (antibody, V domains shown, also called 780_38; 33B1 and 31B2 (apparent misprints)) VH: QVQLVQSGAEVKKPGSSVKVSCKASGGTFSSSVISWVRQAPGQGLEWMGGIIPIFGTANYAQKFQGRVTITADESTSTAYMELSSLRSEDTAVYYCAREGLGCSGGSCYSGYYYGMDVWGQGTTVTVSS VL: DIVMTQSPLSLPVTPGEPASISCRSSQSLLHSNGYNYLDWYLQKPGQSPQLLIYEASSLHSGVPDRFSGSGSGTDFTLKISRVEAEDVGVYYCMQGTHWPYTFGQGTKVEIK 89.7%
